Source: the RNAGym collection of RNA variant scans (doi:10.7554/elife.80360)

Field: self-cleavage. Provide a value for each of the variants that follow.
B1: CPEB3 Ribozyme (parent)
chain: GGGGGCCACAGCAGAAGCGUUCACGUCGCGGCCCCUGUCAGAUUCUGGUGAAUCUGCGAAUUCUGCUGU

Variants of: B1
assaySummary: self-cleavage, relative activity (ratio to wild type); higher = more cleavage; co-transcriptional
Just the number, please.

In: Fill in self-cleavage for record G25C G41C
Out: 0.0934

In: Item G48A U55G : provide self-cleavage
Out: 0.993

In: Determine from records and report self-cleavage for A40C U43A
Out: 0.356

In: Consider the variant G30U G56C . State its measured self-cleavage.
Out: 0.196

In: Tell me self-cleavage reported for A23G U67A
Out: 1.03

In: Quickly give me recorded self-cleavage for A23U U49A
Out: 1.03

In: State, in one line, measured self-cleavage of U44G U67C
Out: 0.977

In: Dear colleague, please send me the reported self-cleavage for G5C C7A when you can.
Out: 0.684

In: State, in one line, measured self-cleavage of A40G G65A
Out: 0.756

In: Please supply the value of reported self-cleavage for the item A16C U36G
Out: 0.108

In: Please indicate self-cleavage recorded for G5C G47A
Out: 0.201

In: Assign self-cleavage to the following record: A13C C29A
Out: 0.21

In: Identify self-cleavage associated with the variant G17A U61G
Out: 0.237

In: Give the reported value of self-cleavage for this record: U46G A60U
Out: 0.413

In: Let me know recorded self-cleavage for G4U G25A , thanks.
Out: 0.101

In: Output self-cleavage of C22A C34A
Out: 0.206

In: Answer with reported self-cleavage of G56U U62G
Out: 0.563

In: Let me know recorded self-cleavage for A40U U46A , thanks.
Out: 0.919

In: Tell me self-cleavage reported for C33A U53A
Out: 0.392

In: Give a short answer stating reported self-cleavage for G56C C57U .
Out: 0.483

In: Please give measured self-cleavage of the following entry: C12G A15G
Out: 0.613

In: Respond only with self-cleavage recorded for G25A U46A
Out: 0.267

In: Report self-cleavage, nothing else, for this variant: G4C G14C
Out: 0.101

In: Recall and state the measured self-cleavage for U20G U49C .
Out: 0.173

In: # return recorded self-cleavage for input G19A C57A
Out: 0.133

In: Read the entry G14A G17U and write its reported self-cleavage.
Out: 0.111

In: Give reported self-cleavage value for A13U A15C
Out: 0.354

In: Fill in self-cleavage for record A23G G47C
Out: 0.944

In: Give self-cleavage for the following variant: U38C U69C
Out: 1.06

In: Look up and report measured self-cleavage for this entry: C24A U67A
Out: 0.751

In: For the variant C7A U26G , report self-cleavage.
Out: 0.274

In: Fill in self-cleavage for record A8C C22A
Out: 0.163
